Where these numbers come from: patent US20090142364A1

# Tested on: antibody response to ovalbumin
# Assay summary: Adjuvant activity: antibody response to ovalbumin in mice, titer by solid-phase ELISA
# Format: in vivo, Balb/c mice
# Details: adjuvant 100 μg; ovalbumin 10 μg then 5 μg, i.p.

Substance: VN-peptide: 14-mer, RN-peptide truncated from N-terminus (SEQ ID NO: 11) (VPPRYHAKISPMVN)
Anti-ovalbumin antibody titer: 4200
//
Substance: RV-peptide: 14-mer, RN-peptide truncated from C-terminus (SEQ ID NO: 8) (RVPPRYHAKISPMV)
Anti-ovalbumin antibody titer: 4800
//
Substance: R-I-peptide: 10-mer, RN-peptide truncated from C-terminus (SEQ ID NO: 9) (RVPPRYHAKI)
Anti-ovalbumin antibody titer: 25200
//
Substance: R-H-peptide: 7-mer, RN-peptide truncated from C-terminus (SEQ ID NO: 10); truncated heptapeptide (RVPPRYH)
Anti-ovalbumin antibody titer: 51900
